- Test system: NR0B1 promoter
- assay-procedure: NR0B1-Luc firefly luciferase reporter assay in A673 cells
- Type: cell-based, human
- test-settings: A673 cells, NR0B1-Luc versus UbC-RL
result-type: Separation of inhibition of the NR0B1 and UbC reporters

>>> reported_result("COc1cccc2c1C(=O)c1c(O)c3c(c(O)c1C2=O)C[C@@](O)(C(=O)CO)C[C@@H]3O[C@H]1C[C@H](N)[C@H](O)[C@H](C)O1")
"no separation"
>>> reported_result("COc1cccc2c1C(=O)c1c(O)c3c(c(O)c1C2=O)C[C@@](O)(C(=O)CO)C[C@@H]3O[C@H]1C[C@H](N)[C@@H](O)[C@H](C)O1 [Epirubicin]")
"no separation"
